Hello, the source for this data is patent US12448389B2, in case you need it.

# studyTarget: SMARCA2-HiBiT (Homo sapiens, UniProt P51531)
# Construct: SMARCA2-HiBiT knock-in Hela monoclonal cell (CS302366); host or cells: HeLa monoclonal knock-in line (CRISPR HiBiT knock-in at the endogenous locus, heterozygous)
# Sequence (P51531 whole entry): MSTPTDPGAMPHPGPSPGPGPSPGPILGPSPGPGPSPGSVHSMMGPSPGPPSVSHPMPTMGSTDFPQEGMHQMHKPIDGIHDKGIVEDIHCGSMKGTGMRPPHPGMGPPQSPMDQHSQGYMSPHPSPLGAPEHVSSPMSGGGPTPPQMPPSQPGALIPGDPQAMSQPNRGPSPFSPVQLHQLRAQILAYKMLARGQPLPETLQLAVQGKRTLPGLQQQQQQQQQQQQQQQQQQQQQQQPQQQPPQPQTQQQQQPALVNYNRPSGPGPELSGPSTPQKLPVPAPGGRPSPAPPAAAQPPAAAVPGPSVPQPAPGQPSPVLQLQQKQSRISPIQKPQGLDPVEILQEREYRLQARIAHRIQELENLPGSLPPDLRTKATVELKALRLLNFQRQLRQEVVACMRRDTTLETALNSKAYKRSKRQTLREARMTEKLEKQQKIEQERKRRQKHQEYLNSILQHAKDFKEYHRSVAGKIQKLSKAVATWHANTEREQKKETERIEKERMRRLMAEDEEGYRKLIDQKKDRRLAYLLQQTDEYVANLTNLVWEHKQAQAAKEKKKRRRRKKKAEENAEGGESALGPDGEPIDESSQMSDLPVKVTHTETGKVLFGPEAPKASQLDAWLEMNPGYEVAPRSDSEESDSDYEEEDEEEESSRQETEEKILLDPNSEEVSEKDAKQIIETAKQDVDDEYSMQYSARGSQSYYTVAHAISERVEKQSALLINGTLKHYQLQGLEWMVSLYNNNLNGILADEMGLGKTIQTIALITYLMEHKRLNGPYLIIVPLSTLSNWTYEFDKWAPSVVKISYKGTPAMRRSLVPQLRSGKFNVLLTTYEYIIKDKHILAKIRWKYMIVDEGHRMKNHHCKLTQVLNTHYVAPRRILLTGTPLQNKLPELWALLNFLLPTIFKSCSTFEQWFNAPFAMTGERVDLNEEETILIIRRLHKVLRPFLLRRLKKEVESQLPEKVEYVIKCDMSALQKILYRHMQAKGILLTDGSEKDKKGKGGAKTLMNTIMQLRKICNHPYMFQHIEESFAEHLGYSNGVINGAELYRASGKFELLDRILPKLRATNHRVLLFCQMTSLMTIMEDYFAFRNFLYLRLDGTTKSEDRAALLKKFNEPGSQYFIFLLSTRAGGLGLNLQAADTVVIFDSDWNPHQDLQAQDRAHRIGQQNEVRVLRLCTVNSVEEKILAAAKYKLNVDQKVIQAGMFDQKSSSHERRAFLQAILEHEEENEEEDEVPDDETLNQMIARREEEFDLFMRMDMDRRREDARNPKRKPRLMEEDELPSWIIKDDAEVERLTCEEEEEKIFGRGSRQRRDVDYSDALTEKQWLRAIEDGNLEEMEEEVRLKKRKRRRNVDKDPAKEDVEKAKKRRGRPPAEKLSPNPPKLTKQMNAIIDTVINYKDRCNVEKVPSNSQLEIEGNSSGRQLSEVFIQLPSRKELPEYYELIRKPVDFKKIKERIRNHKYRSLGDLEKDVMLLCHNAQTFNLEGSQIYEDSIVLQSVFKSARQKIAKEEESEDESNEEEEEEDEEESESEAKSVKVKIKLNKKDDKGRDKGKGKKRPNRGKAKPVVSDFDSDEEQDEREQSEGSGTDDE
# assayInfo: SMARCA2 HiBiT degradation assay in HeLa cells
# Format: cell-based
# conditionsUsed: 18 hours incubation, read-out: HeLa_HiBit-SM2 DC50
Catalogue of DC50 readings, one per entry.

[
  {
    "compound": "O=C1CCC(N2Cc3cc(OCCN4CCC(N5CCN6c7cc(-c8ccccc8O)nnc7NC[C@H]6C5)C4)ccc3C2=O)C(=O)N1 (stereo partly shown)",
    "DC50": "10 to 100 nM"
  },
  {
    "compound": "O=C1CCC(N2C(=O)c3ccc(N4[C@@H]5CC[C@H]4CC(CN4CCC(CN6CCN7c8cc(-c9ccccc9O)nnc8NC[C@H]7C6)CC4)C5)cc3C2=O)C(=O)N1 (stereo partly shown)",
    "DC50": "< 10 nM"
  },
  {
    "compound": "O=C1CCC(N2Cc3cc(C4CCN(CC5CCN(CCN6CCN7c8cc(-c9ccccc9O)nnc8NC[C@H]7C6)CC5)CC4)ccc3C2=O)C(=O)N1 (stereo partly shown)",
    "DC50": "< 10 nM"
  },
  {
    "compound": "CC1CN(CC2CCN(c3ccc4c(c3)C(=O)N(C3CCC(=O)NC3=O)C4)CC2)CCC1C(=O)N1CCN2c3cc(-c4ccccc4O)nnc3NC[C@H]2C1 (stereo partly shown)",
    "DC50": "< 10 nM"
  },
  {
    "compound": "O=C1CCC(N2Cc3ccc(N4CCC(CN5C[C@@H]6[C@H](C5)[C@H]6CN5CCN6c7cc(-c8ccccc8O)nnc7NC[C@H]6C5)CC4)cc3C2=O)C(=O)N1 (stereo partly shown)",
    "DC50": "< 10 nM"
  },
  {
    "compound": "O=C1CCC(N2C(=O)c3cc(F)c(N4CCC(CN5CCC(CN6CCN7c8cc(-c9ccccc9O)nnc8NC[C@H]7C6)CC5)CC4)cc3C2=O)C(=O)N1 (stereo partly shown)",
    "DC50": "< 10 nM"
  },
  {
    "compound": "CCC1Nc2nnc(-c3ccccc3O)cc2N2CCN(CC3CCN(CC4CCN(c5ccc6c(c5)C(=O)N(C5CCC(=O)NC5=O)C6=O)CC4)CC3)CC12 (stereo not shown)",
    "DC50": "< 10 nM"
  },
  {
    "compound": "O=C1CCC(N2C(=O)c3ccc(N4CCN(CCN5CCC(N6CCN7c8cc(-c9ccccc9O)nnc8NC[C@H]7C6)CC5)CC4)cc3C2=O)C(=O)N1 (stereo partly shown)",
    "DC50": "< 10 nM"
  }
]

Q. Quick one: give measured DC50 for NC1(C(=O)OCN2C(=O)CCC(N3C(=O)c4ccc(N5CCC(CN6CCC(CN7CCN8c9cc(-c%10ccccc%10O)nnc9NC[C@H]8C7)CC6)CC5)cc4C3=O)C2=O)CC1 (stereo partly shown)
A. < 10 nM

Q. Quick one: give measured DC50 for N#CC1(CN2CCC(CN3CCN4c5cc(-c6ccccc6O)nnc5NC[C@H]4C3)CC2)CCN(c2ccc3c(c2)C(=O)N(C2CCC(=O)NC2=O)C3=O)CC1 (stereo partly shown)
A. < 10 nM
